- protocol: yeast display, Sf9 membrane polyspecificity reagent, FACS + sequencing; frameworks hold sequencing errors
observationType: polyreactivity (PSR sort gate)

Before answering, review these 5 worked examples.
HVQLVESGGGLVQAGGSLRLSCAASGSTLWYNAMGWNRQAPGKERELVAVITWTGGSTYYADSVKGRFTISRDNAKNTVYLQMNSLKPEDTAVYYCAVRWYFGNRYKYYYWGQGTQVTVSS = high polyreactivity
QVQLVESGGGLVQAGGSLRKTCAASVRIFHYYAMGWYRQAPGKERELVAAINKSGGRTYYADSVKGRFTISRDNAKNTFYLQMNSLKPEDTAVYYCAAQDGYLGQGTQVTVSS = high polyreactivity
QVQLVESGGGLVQAGGSLRLSCAASGRIFSYYAMGWYRQAPGKERELVAAINSDGSTDYADSVKGRFTISRDNAKNTVYLQMNSLKPEDTAVYYCAKVWSLGPTGFRAYVRVWYYYWGVGTQVTVSS = low polyreactivity
QVQIEESGGGLVQAGGSLRLTCAASGRIFYLNAMGWYRQAPGKERELVAGITNSTTGTYYADSVKGRFTISRDNAKNSVYLQMNSLKPEDTAVFYCNTDVAYEEPVETYDYWGQGTQVTVSS = low polyreactivity
QVQRVESGGGLVQARGSLRLSCAASGRIFYRYAMGWNIQAPGKERELVAAISGSVGSTYADSVKGRFTISRDNAKNTVYLQMNSLKPEDTAVYYCARETYRRYGAYDYWGQGTQVSVSS = low polyreactivity

Give the measured polyreactivity (PSR sort gate) of QVQLVESGGGLVQAGGSLRLSCAASGSTFWLYAMGWYRQAPGKERELVATISERGGSTYYADSVKGRFTISRDNAKNTVYLQMNSLKPEDTAVYYCAADQFHYPRGRRYDYWGQGTQVTVSS .
low polyreactivity

What do you get for QFQLVESGGGLVQAGGSLRLSCADSGSTFFNNAMGWYRHAPGKERELVAAITSSGGSTYYADSVKGRFSISRDNAKNTVYLQMNSLKPEDTAVYYCNKKSALYRRYDYWGQGTQVTVSS ?
low polyreactivity

Record: QVQLVESGGGLVQAGGSLRLSCAASGSIFRWYAMGWYRQAPGKERELVASITRSGGRTYYADSVKGRFTISRDNAKNTVYLQMNSLKPEDTAVYYCAADYYAYWYRYRYYYWGQGTQVTVSS
high polyreactivity

Next record, please: QVQLVESGGGLVQAGGSLRLSCAASGSIFSSYAMGWYRQAPGKERELVAAISQSGGDTYYADSVKGRFTISRDNAKNTVYLQMNSLKPEDTAVYYCNRDFSLVVHYNFDYWGQGTQVTVSS
low polyreactivity

Follow-up item: QVQLVESGGGLVQAGGSLRLSCAASGSTFYSYAMGWYRQAPGKEREFVAAITDSGGSTYYADSVTGRFTISRDNAKNTVYLQMNSLKPEDTAVYYCAKRQYQSYIRGPYYYWGQGTQVTVSS
low polyreactivity

Here is the next sequence: QVQIVESGGGLVQAGGSLRLSCAASGFIFQAYAMGWYRQAPGKERELVAAISSTSGRTYYADSVKGRFTISRDNAKNTVYLQMNSLKPEDTAVYYCARAVSSRNSGEYHYWGQGTQVTVSS
high polyreactivity

One more sequence: QVQLVESGGGLVQAGGSLRLICAASGRTFGGNAMGWYRQAPGKERELVAAISSGGSTNYADSVNGRFTISRDNAKNTVYFLMNSLKPEDTAVYYCAADSKIGSFDSWGQGTQVTVSS
low polyreactivity

Can you handle QDQHVESGGGLVQAGGSLRLSFAASGRIFRYYAMRWYRQAPGKDRELVAAIRWTAGSTYYADSVKVRFTISRDNAKNTVYLQMNSLKPEDPAVYYCATDVWKYGRYEYWVQGTQVTVSS next?
low polyreactivity

Another sequence: QVQLVESGGGLVQAGGSLRLSWAASGSIFFYYTIGWYRQAPGKERELVAAISVGGSTYYADSVKGRFTISRDNAKNTVYLQMNSLKPEDTAVYYSNAVPAKGFVTVVRYYYWGQGTQVTVSS
low polyreactivity

====

- protocol: yeast display, Sf9 membrane polyspecificity reagent, FACS + sequencing; frameworks hold sequencing errors
observationType: polyreactivity (PSR sort gate)

Example entries and their recorded answers appear below.
QVQLVESGGGLVQAGGSLRLSCAASGFTFNFYAMGWYRQAPGKESELVASITSSGARTYYADSVKGRFTISSDNPKNTVYLQMNSLKPEDTAVYYCAARVYRYSASRAYDYWGQGTQVTVSS = high polyreactivity
KGHLEESGGGLVQAGGRLRLSCPASGNTFGDYAMGRYRQAPGKERELVAAISRSGGSTSYADSVKGRFTISRDNAKNTFYLQMNSLKPVDTAVYYCAAYWQRFGYDYWGQGTQVTVSS = low polyreactivity
QVQLVESGGGLVQAGGSLRLSCAASGFTFYRYAMGWYRPAPGKERELVAAITRVGSTYYADSVKGRFTISRDNAKNTVYLQMNSLKPEDTAVYYCNARGTVPWYGYDYWGQGTQVTVSS = high polyreactivity
QVQLVESGGGLVQAGGSLRLSCAASGNIYRYYVMGWYRQAPGKEREFVAAITSSGGSTYYADSVKGRFTISRDNAKNTVYLQMNSLKPEDTAVFYCAKDYGDPGWAEYDYWGQGTQVTVSS = low polyreactivity

// next item, polyreactivity (PSR sort gate) requested
Look up polyreactivity (PSR sort gate): QVQLVESGGGLVQAGGSLRLSCAASGRTFRGYAMGWYRQAPGKERELVAAITWRGGSTKYADSVKGRFTISRDNAKNTVYLKMNSLKPEDTAVYYCAAARHYLTFWGQGSQVTVSS
high polyreactivity

====

- protocol: yeast display, Sf9 membrane polyspecificity reagent, FACS + sequencing; frameworks hold sequencing errors
observationType: polyreactivity (PSR sort gate)

// worked examples, polyreactivity (PSR sort gate) included
QVQLVESGGGLVQAGGSLRLSCAASGSTFYNYAMGWYRQAPGKERELVASITWNGGSTYYADSVKGRFTISRDNAKNTVYLQMNSLKPEDTAVYYCAAEWTWTYPYDYWGQGTQVTVSS = low polyreactivity
QVQLVESGGGLVQARGSLRLSCAASGSIFHHYAMGWYRQAPGKDTELVAAISKSGGSTYYADSVKGRFTISRDNAKNTVYLQMNSLKPEDTAVYYCNAEVFWWDLWYDYWGQGTKVTVSS = high polyreactivity
QVQLVESGGGLVQAGGSLRLTCAASGRIFWINDMVWNRQAPGKESELVAAIRSIGGSTYYADSVKGRFRISRDNAKNTVYLQMNSLKPEDTSVYYCAAKSSPKFRGRYYYWGQGTQVTVSS = low polyreactivity
QVHLVESGGGLVQAGGSLRLSCAASGLIFLAYAMGWYRQAPGKERELVAAISTSGSTYYADSVKGRFTISRDNAKNTVYLQMNSLKPEDTAVYYCAAYDRWSVTYYYWGQGTQVTVSS = high polyreactivity
QVQLVESGGGLVQAGGSLRLSCAASGSTFTNNDMGWYRPAPGKERELVAAITDSDGITYYADSVKGRFTISRDNAKNTVYLQMNSLKPDDSAVYYCAAYYYGSVAQDREYWGQGTQVTVSS = high polyreactivity

Suppose we examine the sequence QVQLVESGGGLVQAGGSLRLSCAASGFIFYEYAMGWYRQAPGKERELVAAITSGGSTDYADSVKGRFTISRDNANNTVYLQMNSLKPEDTAVYYCNADLFTGYYWYNYWGQGTQVTVSS ; what polyreactivity (PSR sort gate) value has been reported?
low polyreactivity

Now this one: QVQLVESGGGLVQAGGSLRLSCAASGRIFFKNAMGWYRQAPGKDRELVAAISWSGGRTYYADSVKGRFTISRDNAKNTVYLQMNSLKPEDSAVYYCATRYHVGKYLYGYWGQGTQVTVSS
high polyreactivity

Likewise for QVQLVESGGGLVQAGGSLRLSCAASGITFEYYTMGWYRQAPGKERELVAAITQGGGTTYYADSVKGRFTISRDNAKNTVYLQMNSLKPEDTAVYYCAAYVGYLLLYYPTYYYWGQGTQVTVSS ?
low polyreactivity

Param item: QVQLVESGGGLVQAGGSLRLSCAASGRIFAYNTMGWYRQAPGKERELVAVITSGGSTNYADSVNGRFTISRDNAKNTVYLQMNSLKPEDTAVYYCAKRPYGRSGGSRYDYWGQGTQVTVSS
high polyreactivity

Field entry: QVQLVESGGGLVQAGGSLRLSCAASGRIFERYAMGWYRQEPGKERELVAGISISGGGTYYADSVKGRFTISRDNAKNTVYLQMNSLKPEDTAVYYCAGTFPREEYGYWGQGTQVTVSS
low polyreactivity

Next entry: QVQLVDSGGGLVQAGGSLRLSCAASGRTIGINPMGWYRQAPGKERELVASITRSVGSTYDADSVKGRFTISRDNAKNTVYLQMNSLKPEDTEVYYCAAEYYTWSYYTKYYYWGQGTQVTVSS
high polyreactivity

Queued: QDQLVESGGGLVQAGGSLPLSCAASGFTYSSYAMGWYRHAPGKERELVATISRSGSTTYYADSVKGRFTISRDNAKNTVYFQMNSLKPEDTAVYYCAKAYYPGGYWGQGTQVTVSS
high polyreactivity

Ok, now QVQLVESGGGLVQAGGSLRLSCAASGRIFQYYAMGWYRQAPGKEREFVAAISDSGSNTYYADSVKGRFTISCDKAKNTVYLQMNSLKPEDTAVSYCAALYATRALFYFWGQGTQVTVSS
low polyreactivity

Param item: QVQLVESGGGLVQAGGSLRLSCAASGSTFESNAMGWYRQAPGKERELVAAISRGGNTYYADSVKGRFTISRDNAKITVYLQMNSLKPEDTAVYYCNVDRGKPVPPSEYWGQGTQVTVSS
low polyreactivity

Subsequent entry: QVQLVESGGGLVQAGGSLRLSCAASGSTFTGNAMGWYRQAPGKERELVASISTGGSTNYADSVKGRFTISRDNAKNTVYLQMNSLKPEDTAVYYCATDYCFKDSVVDFDYWGQGTQVTVSS
low polyreactivity

Try QVQLVESGGGLVQAGGSLRLSCAASGSTFYYYAMGWYRQAPGKERELVASISGGGSTSYADSVKGRFTISRDNAKNTVYLQMNSLKPEDNAVYYCNADPSEYDPNYVVVFSPQKYDYCGQGTQVTVSS next.
low polyreactivity

Try the sequence QVQLVESGGGLVQAGGSLRLSCAASGSIRSYAMGWYRQAPGKERELVAAITRSGGSTYYADSVKGRFTISRDNAKNTVYLQMNSLKPEDTAVYYCAAEVRGKSRSTRVSYRYDYWGQGTQVTVSS
high polyreactivity

And then QVQLVESGGGLVQAGGSLRLSCAASGITFYINAMGWSRQAPRKERALLAGISSGGSTNYADSVKGRFTISRDNAKNTVYLQMNSLKPEDTAVYYCWVSRTYHLDYWGQGTQVTVSS , what is it?
low polyreactivity

Note, next up: QVQLVESGGGLVQAGGSLRLSCAASGRTFVGYAMGWYRQAPGKERELVAAITSGGGTYYADSVKGRFTISRDNAKNTVYLQMNSLKPEDTAVYYCNRASRRGYYYPYNYWGQGTQVTVSS
high polyreactivity

# repeat for HVQLVESGGGLVQAGGSLRISCAASGITFYAYAMGWYRQAPGKERELVAAITRRGGSTRYADSVKGRFTITRDNAKNTVYLQMNSLKPEDTAVYYCNARSGRYFLGYGYWGQGTQVTVSS
high polyreactivity

And what about the sequence QVQHVESGGGLVQAGGSLRLSCAASGFIFPVYAMGWYRQAPGKDRELVAAISSGGITNYADSVKVRFTISRDNAKNTVYLQMNSLKPEDTAVYYCAARDYVRFGLYDYDYWGQGTQVTVSS ?
low polyreactivity
